Reported glycan array binding signal (z-score) values are given for each entry in this list.
molecular target: Neu5Ac(a2-8)Neu5Ac(a2-3)[GalNAc(b1-4)]Gal(b1-4)Glc; test: glycan array binding signal (z-score within array); higher = stronger binding; details: glycan notation: IUPAC condensed, linker removed
Many of the other results were omitted from the sample, so the strongest signals are more common in it than they were.
Reply with the value as a number alone.

MLTim-4 (Mus musculus), Q6U7R4 (protein) MSKGLLLLWLVTELWWLYLTPAASEDTIIGFLGQPVTLPCHYLSWSQSRNSMCWGKGSCPNSKCNAELLRTDGTRIISRKSTKYTLLGKVQFGEVSLTISNTNRGDSGVYCCRIEVPGWFNDVKKNVRLELRRAT = -0.484

Next, consider the following binder.
IN: If you can, please state the reported glycan array binding signal (z-score) value of Adiponectin (Rattus norvegicus), Q8K3R4 (protein) MLLLQALLFLLILPSHEGITATEGPGALVPPPKETCAGWMAGIPGYPGHNGIPGRDGRDGTPGEKGEKGDAGVLGPKGDPGDAGMTGAEGPRGFPGTPGRKGEPGEAAYMYHSAFSVGLETRVTVPNVPIRFTKIFYNQQNHYDGSTGKFHCNIPGLYYFSYHITVYMKDVKVSLFKKDKAVLFTYDQYQEKNVDQASGSMLLHLEVGDQVWLQVYGEGDNNGLYADNVNDSTFTGFLLYHDTN .
OUT: 0.022

meta.source: the supplement of paper PMC8728848
